Numbers sourced from ChEMBL document CHEMBL1148726.

Experiment: Half life in rat at 10 mg/kg, po or 2 mg/kg, iv
Format: ADME, organism-based
Conditions: in vivo

{"columns": ["molecule", "half-life [min]"],
 "data": [
  ["COc1ccc(CCC2(C3CCCC3)CC(O)=C(Cc3nc4nc(C)cc(C)n4n3)C(=O)O2)cc1Cl (stereo unspecified)", 30]
]}

----------
Experiment: Half life in rat at 25 mg/kg, po or 5 mg/kg, iv
Assay type: ADME, organism-based
Conditions: in vivo

{"columns": ["compound", "measurementUnits", "half-life"],
 "data": [
  ["COc1ccc(CCC2(C3CCCC3)CC(O)=C(Sc3nc4nc(C)cc(C)n4n3)C(=O)O2)cc1Cl (configuration not stated)", "h", 1.5],
  ["Cc1cc(C)n2nc(CC3=C(O)CC(CCc4ccc(C(C)(C)C#N)c(F)c4)(C4CCCC4)OC3=O)nc2n1 (single isomer, unassigned; enantiomer 1)", "h", 0.88]
]}

----------
Test: Fraction absorption in rat at 10 mg/kg, po
Format: ADME, organism-based
Set-up: dose 10 mg/kg, route oral
Conditions: in vivo
measurementName: Fa (%)

{"columns": ["molecule", "measurementName", "measurementUnits", "reportedResult"],
 "data": [
  ["COc1ccc(CCC2(C3CCCC3)CC(O)=C(Cc3nc4nc(C)cc(C)n4n3)C(=O)O2)cc1Cl (stereo unspecified)", "Fa", "%", 48]
]}

----------
Assay: Inhibition of HCV 1a NS5B delta21 RNA dependent RNA polymerase by enzymatic assay
Set-up: species or system Hepacivirus hominis

{"columns": ["molecule", "IC50 / nM"],
 "data": [
  ["Cc1cc(C)n2nc(CC3=C(O)CC(CCc4ccc(C(C)(C)C#N)c(F)c4)(C4CCCC4)OC3=O)nc2n1 (single isomer, unassigned; enantiomer 1)", 70]
]}

----------
Assay: Fraction absorption in rat at 25 mg/kg, po
Type: ADME, organism-based
Design: dose 25 mg/kg, route oral
Conditions: in vivo

{"columns": ["compound", "Fa, %"],
 "data": [
  ["COc1ccc(CCC2(C3CCCC3)CC(O)=C(Sc3nc4nc(C)cc(C)n4n3)C(=O)O2)cc1Cl (stereo unspecified)", 2.5]
]}

----------
Measured CC50, listed per entry.
Assay: Cytotoxic against Huh7 cells
Assay type: cell-based, Huh-7
Conditions: human, Huh7 cells

{"columns": ["molecule", "CC50"],
 "data": [
  ["COc1ccc(CCC2(C3CCCC3)CC(O)=C(Cc3nc4nc(C)cc(C)n4n3)C(=O)O2)cc1Cl (centres undefined)", "> 32 µM"],
  ["Cc1cc(C)n2nc(CC3=C(O)CC(CCc4ccc(C(C)(C)C#N)c(Cl)c4)(C4CCCC4)OC3=O)nc2n1 (centres undefined)", "> 32 µM"],
  ["COc1ccc(CCC2(C3CCCC3)CC(O)=C(Sc3nc4nc(C)cc(C)n4n3)C(=O)O2)cc1Cl (centres undefined)", "> 100 µM"],
  ["CCOc1ccc(CCC2(C3CCCC3)CC(O)=C(Cc3nc4nc(C)cc(C)n4n3)C(=O)O2)cc1Cl (centres undefined)", "> 32 µM"]
]}

----------
Assay: Permeability from apical to basolateral side of the Caco-2 cell membrane
Assay type: ADME, cell-based
Details: human
# Papp A→B annotations
measurementName: Papp A→B

{"columns": ["compound", "measurementName", "reportedResult"],
 "data": [
  ["COc1ccc(CCC2(C3CCCC3)CC(O)=C(Sc3nc4nc(C)cc(C)n4n3)C(=O)O2)cc1Cl (configuration not stated)", "Papp A→B", "3 ×10⁻⁶ cm/s"],
  ["COc1ccc(CCC2(C3CCCC3)CC(O)=C(Cc3nc4nc(C)cc(C)n4n3)C(=O)O2)cc1Cl (configuration not stated)", "Papp A→B", "10 ×10⁻⁶ cm/s"]
]}
